Measured values drawn from patent US20040146519A1 for this set.

// reported IC50 for each item listed
- test target: HLA-A*0201 (human)
- test description: competition with 125I probe peptide for purified HLA
assay readout: IC50 (µM)

- binder: "GIMIGVLVGV [CEA.690]"
  display unit: "µM"
  result value: 0.064
- binder: "ILIGVLVGV [CEA.691L2]"
  display unit: "µM"
  result value: 0.022
